Attribute: Emax
test system: BaF3; experiment: PROTAC activity at CRBN/ROS1 in mouse BaF3 cells assessed as maximum ROS1 degradation by immunoblotting assay relative to control; assay type: cell-based
Return type: number; implicit unit %.

INSERT INTO assay_data (compound, measured_on, observed_value) VALUES
  ('COc1cc(N2CCC(N3CCN(CC4CCN(c5cccc6c5C(=O)N(C5CCC(=O)NC5=O)C6=O)CC4)CC3)CC2)ccc1Nc1ncc(Cl)c(Nc2ccccc2P(C)(C)=O)n1 (centres undefined)', 'BaF3', 99),
  ('COc1cc(N2CCC(N3CCN(C4CN(c5cccc6c5C(=O)N(C5CCC(=O)NC5=O)C6=O)C4)CC3)CC2)ccc1Nc1ncc(Cl)c(Nc2ccccc2P(C)(C)=O)n1 (centres undefined)', 'BaF3', 77),
  ('COc1cc(N2CCC(N3CCN(CC4CN(c5cccc6c5C(=O)N(C5CCC(=O)NC5=O)C6=O)C4)CC3)CC2)ccc1Nc1ncc(Cl)c(Nc2ccccc2P(C)(C)=O)n1 (centres undefined)', 'BaF3', 79);

From here, focus on the item given below.
Sure, the documented Emax for COc1cc(N2CCN(CC3CCN(c4ccc5c(c4)CN(C4CCC(=O)NC4=O)C5=O)CC3)CC2)ccc1Nc1ncc(Cl)c(Nc2ccccc2P(C)(C)=O)n1 (centres undefined) is 93
